system: HCV NS3 helicase NS3h_1b(con1) (Hepatitis C virus genotype 1b, UniProt Q9WMX2)
Construct: truncated C-terminally His-tagged NS3 proteins lacking the N-terminal protease, called NS3h; His-tag (C); made in house
Sequence (Q9WMX2 1192-1657): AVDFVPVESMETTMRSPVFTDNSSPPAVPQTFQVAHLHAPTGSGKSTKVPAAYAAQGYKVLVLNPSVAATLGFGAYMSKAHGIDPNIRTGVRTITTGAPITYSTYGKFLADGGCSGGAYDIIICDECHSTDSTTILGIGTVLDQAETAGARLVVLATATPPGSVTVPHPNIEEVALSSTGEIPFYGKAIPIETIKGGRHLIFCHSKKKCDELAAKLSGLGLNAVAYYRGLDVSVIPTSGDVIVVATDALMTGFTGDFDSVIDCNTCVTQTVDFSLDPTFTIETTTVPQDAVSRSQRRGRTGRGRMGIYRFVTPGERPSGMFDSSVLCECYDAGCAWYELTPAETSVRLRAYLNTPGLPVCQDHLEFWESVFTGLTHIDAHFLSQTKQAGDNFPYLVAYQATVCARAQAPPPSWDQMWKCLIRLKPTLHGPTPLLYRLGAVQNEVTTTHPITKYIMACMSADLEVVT
assayNotes: MBHA screen of NCI mechanistic set library at 20 μM (percent inhibition, compound interference)
Type: biochemical
testConditions: compounds at 20 μM, MBHA with DNA substrate; calculated from Equation 1
parameterMeasured: Inh. (%) (Inhibition)

CO[C@H](C(=O)[C@@H](O)[C@@H](C)O)[C@@H]1Cc2cc3cc(O[C@H]4C[C@@H](O[C@H]5C[C@@H](O)[C@H](O)[C@@H](C)O5)[C@H](O)[C@@H](C)O4)c(C)c(O)c3c(O)c2C(=O)[C@H]1O[C@H]1C[C@@H](O[C@H]2C[C@@H](O[C@H]3C[C@](C)(O)[C@H](O)[C@@H](C)O3)[C@@H](O)[C@@H](C)O2)[C@H](O)[C@@H](C)O1 [Compound 24559]    36.0

I = C/C(=N\NC(=S)N1CCN(C2CCCCCC2)CC1)c1ccccn1 [Compound 376265]
II = CCCCCCCCCCNCCSSCc1ccc(Cl)cc1.Cl [Compound 624206]
Request: Hi! Which is lower in terms of Inh. (%) (Inhibition), the first one I or the second one II ? Refer to your chosen entry by its label in the reply.
Result: I
